# target.entity: T1, TirM^EHEC, extracellular domain of the translocated intimin receptor (Tir) of enterohaemorrhagic E. coli (Escherichia coli EHEC; strain not …, UniProt Q7DB77, biotin (NHS-biotin, biotin:protein 20:1) for flow cytometry and MACS)
# T1 construct: Translocated intimin receptor Tir of enterohaemorrhagic E. coli (EHEC), extracellular TirM domain; also called EHEC TirM; former antigen
# assay.details: flow cytometry on cells; E. coli displaying the intimin-Nb fusion (multivalent) incubated 90 min at 4 °C in PBS with biotinylated antigen (0-250 nM TirM^EPEC or 0-50 nM TirM^EHEC), stained with streptavidin-allophycocyanin; median fluorescence fitted to one-site specific binding; apparent KD
# test.context: one partner purified
Examples of binders with documented pKd follow.
// pKd: -log10(molar conc.)

Exercise: Please look up its pKd: Nb TD4^D116G displayed on E. coli as a fusion to the outer membrane anchoring domain of intimin (VHH, as the VHH of m3 with D116G (CDR3); Evolved from TD4 by DIvERGE mutagenesis and MACS selection; also called Nb D116G; not shown: intimin outer membrane anchoring domain, N-terminal, kept) VHH: QVQLVDAGGGSVQAGGSLTLSCVASGAAYSTNLLGWFRQAPGKEREGVASIYRGNSATNYADSVKGRFTISQDKTKYTIYLQMNSLKPEDSAMYYCAHGTAPYWHTPIPTLSEGKYFYWGQGTQVTVSS
Key: 9.24

Exercise: How about this binder: Nb TD4 displayed on E. coli as a fusion to the outer membrane anchoring domain of intimin (VHH, VHH TD4; multivalent on the bacterial surface; also called parental Nb; non-evolved TD4; not shown: intimin outer membrane anchoring domain, N-terminal, kept) VHH: QVQLVDAGGGSVQAGGSLTLSCVASGAAYSTNLLGWFRQAPGKEREGVASIYRGNSATNYADSVKGRFTISQDKTKYTIYLQMNSLKPEDSAMYYCAHGTAPYWHTPIPTLSEDKYFYWGQGTQVTVSS
Key: 9.39

Exercise: How about this binder: Nb TD4^H107Y displayed on E. coli as a fusion to the outer membrane anchoring domain of intimin (VHH, as the VHH of m3 with H107Y (CDR3); Evolved from TD4 by DIvERGE mutagenesis and MACS selection; also called Nb H107Y; not shown: intimin outer membrane anchoring domain, N-terminal, kept) VHH: QVQLVDAGGGSVQAGGSLTLSCVASGAAYSTNLLGWFRQAPGKEREGVASIYRGNSATNYADSVKGRFTISQDKTKYTIYLQMNSLKPEDSAMYYCAHGTAPYWYTPIPTLSEDKYFYWGQGTQVTVSS
Key: 9.24

Exercise: How about this binder: Nb TD4^T108R displayed on E. coli as a fusion to the outer membrane anchoring domain of intimin (VHH, as the VHH of m3 with T108R (CDR3); Evolved from TD4 by DIvERGE mutagenesis and MACS selection; also called Nb T108R; not shown: intimin outer membrane anchoring domain, N-terminal, kept) VHH: QVQLVDAGGGSVQAGGSLTLSCVASGAAYSTNLLGWFRQAPGKEREGVASIYRGNSATNYADSVKGRFTISQDKTKYTIYLQMNSLKPEDSAMYYCAHGTAPYWHRPIPTLSEDKYFYWGQGTQVTVSS
Key: 9.44
